System: DU-145 prostate
Assay: NCI-60 one-dose screen, 48 h
Details: 10 µM
The panel holds about 83,000 compounds, 20% with a hit somewhere; the sample as a whole holds those more often. Activity calls are given as the source filed them. How the source made its calls: active means growth percent below 10; inactive means the rest.
Choose the fitting class; nothing outside class 1 (active), class 0 (inactive) is accepted.

{"columns": ["molecule", "subjectOfTest", "assignedCategory"],
 "data": [
  ["COc1ccc(-c2cc(C(=O)N=Nc3c(O)[nH]c4ccc(Br)cc34)c3ccccc3n2)cc1", "DU-145 prostate", "class 0"],
  ["C=C(c1ccc(OC)c(N)c1)c1cc(C)nc2ccccc12", "DU-145 prostate", "class 0"],
  ["Cc1ccc2nc3c(nc2c1)c1cc(I)ccc1n3CCN(C)C", "DU-145 prostate", "class 0"]
]}

Ask: For COc1cc(/C=C/C(=O)c2ccc(C(F)(F)F)cc2)ccc1Oc1nc(Nc2ccc(F)cc2)nc(N(C)C)n1 , which call appears in the assay record?
Reply: class 0

Ask: For O=C(Nc1cccc(-c2cn(-c3ccc4oc(=O)ccc4c3)nn2)c1)Nc1cc(C(F)(F)F)cc(C(F)(F)F)c1 , which call appears in the assay record?
Reply: class 0

Ask: For CCC(C)S(=O)(=O)c1oc(-c2ccc(C)cc2)nc1S(=O)(=O)c1ccccc1 (centres undefined) , which call appears in the assay record?
Reply: class 1

Ask: For N#Cc1c(NC(=O)c2ccc(C(F)(F)F)cc2)sc2c1CCC(O)=C2 , which call appears in the assay record?
Reply: class 0

Ask: For CCCn1c(=O)c2[nH]c(-c3ccc(OCc4nc5ccc(C#N)cc5[nH]4)cc3)nc2n(CCC)c1=O , which call appears in the assay record?
Reply: class 0

Ask: For COc1ccc2cc([C@H](C)C(=O)NCc3ccccc3)ccc2c1 , which call appears in the assay record?
Reply: class 0

Ask: For CN1CCN(c2ccc(C(=O)/C=C/c3ccc(OC(F)F)cc3)cc2)CC1 , which call appears in the assay record?
Reply: class 0

* * *

Test system: SF-268 CNS
Assay: NCI-60 one-dose screen, 48 h (100 = growth as untreated, 0 = no growth, -100 = all killed)
Settings: 10 µM
This is part of a sample that, as a whole, favours compounds with a hit. Of some 83,000 tested, about 20% had one in any assay.
Label true (1) when growth is at or above 20%; otherwise label false (0).

{"columns": ["compound", "subjectOfTest", "assignedCategory"],
 "data": [
  ["COc1cccc(/C=C2\\N=C(C)N(CCc3ccc(S(N)(=O)=O)cc3)C2=O)c1", "SF-268 CNS", "true (1)"],
  ["CCN1CCN(c2ccc(NC(=O)Nc3ccc(-c4cc(C(=O)NC(C)C)c5ncccc5n4)cc3)cc2C(F)(F)F)CC1", "SF-268 CNS", "false (0)"]
]}

Ask: Reported growth reaches at least 20% for Cc1ccc(/C=C(\C#N)n2nnc3c(F)cccc32)cc1 ?
Reply: true (1)

Ask: Reported growth reaches at least 20% for O=C(CNc1nc(-c2ccccc2)cs1)Nc1ccc(Cl)cc1 ?
Reply: false (0)

Ask: Reported growth reaches at least 20% for CN1C(=O)N(C)C2SC(N/N=C/c3ccc(F)cc3)=NC21 (stereo not given) ?
Reply: true (1)

* * *

Tested on: MDA-MB-231 breast
Assay: NCI-60 one-dose screen, 48 h
Settings: 10 µM
This is part of a sample that, as a whole, favours compounds with a hit. Of some 83,000 tested, about 20% had one in any assay. Activity calls are given as the source filed them. How the source made its calls: active means growth percent below 10; inactive means the rest.
Choose the fitting class; nothing outside active, inactive is accepted.

{"columns": ["molecule", "assignedCategory"],
 "data": [
  ["O=C(c1ccc(Cl)cc1)C1[C@H](c2ccccc2Br)[C@@H](c2ccccc2)NC12C(=O)Nc1ccccc12 (stereo not given in full)", "active"]
]}

Ask: For CN1CCN(Cc2ccc(NC(=O)c3cncc(C#Cc4cnc5ccc(N[C@H]6CCOC6)nn45)c3)cc2C(F)(F)F)CC1 , which call appears in the assay record?
Reply: active

Ask: For C/C(=N\N=C\c1ccc(Cl)c([N+](=O)[O-])c1)c1ccc2c(c1)Nc1ccccc1S2 , which call appears in the assay record?
Reply: inactive

* * *

Test system: 786-0 renal
Test: NCI-60 one-dose screen, 48 h
Conditions: 10 µM
Method: Cells are grown in 96 well plates and exposed to the test compound for 48 hours. Compounds are tested at a single concentration, which is 10^-5 M for most compounds. The reported endpoint is percent growth (GI% or GIPRCNT), where numbers from 0 - 100% represent growth inhibition, and numbers from -100% - 0 represent cell death. For example, a value of 40 represents 60% growth inhibition. A value of 0 means no net growth occurred over the course of the experiment. […]
The panel holds about 83,000 compounds, 20% with a hit somewhere; the sample as a whole holds those more often. Activity calls are given as the source filed them. How the source made its calls: active means growth percent below 10; inactive means the rest.
Choose the fitting class; nothing outside yes (active), no (inactive) is accepted.

Reference set, count: 5
{"columns": ["compound", "assignedCategory"],
 "data": [
  ["O=C(CSc1nnc(-c2c[nH]c3ccccc23)n1-c1ccccc1)c1ccc(Br)cc1", "no"],
  ["COc1ccc2cc([C@H](C)C(=O)NCc3ccccc3)ccc2c1", "no"],
  ["COc1ccc(/C=N/N=C(\\C)c2ccc3c(c2)Nc2ccccc2S3)cc1O", "no"],
  ["O=C1CCC(N2Cc3cc(NC(=O)COc4ccccc4)ccc3C2=O)C(=O)N1 (stereo not given)", "no"],
  ["COc1ccc(-c2cc(C(=O)N=Nc3c(O)[nH]c4ccc(F)cc34)c3ccccc3n2)cc1", "no"]
]}

Ask: For COc1cccc(COc2ccc(/C=C3\Oc4cc(O)ccc4C3=O)cc2)c1 , which call appears in the assay record?
Reply: yes

Ask: For COc1ccc2[nH]c(=O)c(CSc3ccc(Nc4nccc(-c5ccc(Cl)cc5)n4)cc3)cc2c1 , which call appears in the assay record?
Reply: no

Ask: For Nc1nc(-c2ccccc2)cs1 , which call appears in the assay record?
Reply: no

Ask: For O=S(=O)(c1ccc(Cl)cc1)c1nc(-c2ccccc2)oc1S(=O)(=O)c1ccc(Cl)cc1 , which call appears in the assay record?
Reply: no

Ask: For Nc1nc2c(F)c(F)c(F)c(F)c2s1 , which call appears in the assay record?
Reply: no

* * *

Test system: MDA-MB-468 breast
Experiment: NCI-60 one-dose screen, 48 h
Conditions: 10 µM
The panel holds about 83,000 compounds, 20% with a hit somewhere; the sample as a whole holds those more often. Activity calls are given as the source filed them. The calls were made as follows: active = growth percent below 10; inactive = the rest.
Choose the fitting class; nothing outside yes (1) = active, no (0) = inactive is accepted.

Reference set, count: 5
{"columns": ["compound", "assignedCategory"],
 "data": [
  ["COc1cc2c3c(n(CCCNCCO)c(=O)c2cc1OC)-c1nc2c(cc1C3=O)OCO2", "yes (1)"],
  ["COc1ccc(OC)c(/C=N/NC(=O)c2ccc3nc(-c4ccc(Cl)cc4)[nH]c3c2)c1", "no (0)"],
  ["O=C(Nc1ccc(OCC(=O)c2ccccc2)cc1)Nc1ccc(Cl)c(C(F)(F)F)c1", "yes (1)"],
  ["COC[C@@H](CC(C)C)N=C1N/C(=C\\c2ccc3ncsc3c2)C(=O)N1C", "yes (1)"],
  ["Nc1cccnc1/C=N/NC(=S)NCCNC(=O)c1ccc(-n2nc(-c3ccccc3O)nc2-c2ccccc2O)cc1", "yes (1)"]
]}

Could you now consider this next compound?
Ask: For Cc1ccc(/C=C/C(=O)c2ccc(NC(=O)CSc3nnc(-c4c[nH]c5ccccc45)n3-c3ccccc3)cc2)cc1 , which call appears in the assay record?
Reply: no (0)

* * *

Tested on: SK-MEL-2 melanoma
Experiment: NCI-60 one-dose screen, 48 h
Conditions: 10 µM
Compounds without any hit were thinned out: in the full panel of roughly 83,000, 20% have a hit. Active and inactive are the calls of the source. The calls were made as follows: active = growth percent below 10; inactive = the rest.
Choose the fitting class; nothing outside active, inactive is accepted.

Ask: For Cc1cc(C)cc(Oc2cccc(-c3c(C)nnn3C3CCN(CCN(C)C)CC3)n2)c1 , which call appears in the assay record?
Reply: inactive

Ask: For CC(=O)NS(=O)(=O)c1ccc(NC(=O)CSC2=NC(c3ccccc3)C(C(C)=O)=C(C)N2)cc1 (stereo not given) , which call appears in the assay record?
Reply: inactive

Ask: For C=C1CCC2C3(C)COC(c4c(F)cccc4F)OC3CCC2(C)C1C/C=C1/C(=O)OCC1O (stereo not given) , which call appears in the assay record?
Reply: active

Ask: For COc1ccc2nc(Nc3cccc(NC(=O)c4ccc(CN5CCN(C)CC5)c(C(F)(F)F)c4)c3)ccc2c1 , which call appears in the assay record?
Reply: active

Ask: For CONC[C@]1(C)C=C2C(=O)[C@](C)(O)C3(CC3)C(C)=C2[C@H]1O , which call appears in the assay record?
Reply: active

// provenance: PubChem BioAssay (NCI)
